test.parameters: 293.15 K; 100 kPa; Liquid; Vibrating tube method
property.label: mass density (kg/m3)

CCCCO
809.55
CCCCCCO
818.88
CCCCCO
814.68
CCCO
803.58
CCCCCCCCCCC
740.35

---

test.parameters: 313.15 K; 100 kPa; Liquid; Vibrating tube method
property.label: mass density (kg/m3)

CCCO
787.44
CCCCO
794.2
CCCCCCCCCCC
725.53
CCCCCCO
804.5
CCCCCO
799.94

---

test.parameters: 363.15 K; 100 kPa; Liquid; Falling or rolling sphere viscometry
property.label: viscosity (mPa·s)

Worked set:
CCCO
0.528
CCCCCO
0.776
CCCCCCCCCCC
0.475

I. CCCCO
II. CCCCCCO
Incoming: Smaller viscosity value, I vs II ? Reply briefly: the label of your chosen item.
Outgoing: I
(I: 0.633 mPa·s, II: 0.925 mPa·s)

---

test.parameters: 303.15 K; 100 kPa; Liquid; Falling or rolling sphere viscometry
property.label: viscosity (mPa·s)

Example entries begin here.
CCCCCO
3.023
CCCO
1.714

P. CCCCO
Q. CCCCCCCCCCC
R. CCCCCCO
Incoming: Place the items in sequence of falling viscosity. A ranking is expressed here by listing the labels in the requested order.
Outgoing: R, P, Q

---

test.parameters: 348.15 K; 100 kPa; Liquid; Vibrating tube method
property.label: mass density (kg/m3)

CCCO [propan-1-ol]
757.09
CCCCCCO [hexan-1-ol]
777.86
CCCCCO [pentan-1-ol]
772.49
CCCCO [butan-1-ol]
765.49
CCCCCCCCCCC [undecane]
699.47

---

test.parameters: 318.15 K; 100 kPa; Liquid; Vibrating tube method
property.label: mass density (kg/m3)

CCCCO
790.27
CCCCCCO
800.83
CCCO
783.304
CCCCCO
796.17

---

test.parameters: 303.15 K; 100 kPa; Liquid; Vibrating tube method
property.label: mass density (kg/m3)

CCCO
795.58
CCCCCCO
811.74
CCCCO
801.94
CCCCCCCCCCC
732.93
CCCCCO
807.37

---

test.parameters: 358.15 K; 100 kPa; Liquid; Vibrating tube method
property.label: mass density (kg/m3)

CCCCCCCCCCC
691.96
CCCCO
756.64
CCCCCO
764.08
CCCCCCO
769.78
CCCO
747.65

---

test.parameters: 298.15 K; 100 kPa; Liquid; Falling or rolling sphere viscometry
property.label: viscosity (mPa·s)

Example entries begin here.
CCCCCO
3.474
CCCO
1.929

P. CCCCO
Q. CCCCCCO
R. CCCCCCCCCCC
Incoming: Returns the items ordered by viscosity, from maximum to minimum. Output the labels ranked as instructed.
Outgoing: Q, P, R

---

test.parameters: 308.15 K; 100 kPa; Liquid; Vibrating tube method
property.label: mass density (kg/m3)

CCCCCO [pentan-1-ol]
803.67
CCCCCCCCCCC [undecane]
729.23
CCCO [propan-1-ol]
791.53
CCCCO [butan-1-ol]
798.09
CCCCCCO [hexan-1-ol]
808.13

---

test.parameters: 333.15 K; 100 kPa; Liquid; Falling or rolling sphere viscometry
property.label: viscosity (mPa·s)

Example results:
CCCCCCO [hexan-1-ol]
1.744
CCCCO [butan-1-ol]
1.147

1. CCCO [propan-1-ol]
2. CCCCCO [pentan-1-ol]
Incoming: Field: lower viscosity | Options: 1 / 2 Respond with the label that goes with your answer.
Outgoing: 1
(1: 0.905 mPa·s, 2: 1.434 mPa·s)

---

test.parameters: 328.15 K; 100 kPa; Liquid; Falling or rolling sphere viscometry
property.label: viscosity (mPa·s)

Below, 3 molecules whose answers are already recorded.
CCCCCO
1.608
CCCCCCO
1.97
CCCO
1.002

P. CCCCO
Q. CCCCCCCCCCC
Incoming: Which of the two gives a bigger number for viscosity: P or Q ? Give the label of your selection.
Outgoing: P

---

test.parameters: 308.15 K; 100 kPa; Liquid; Falling or rolling sphere viscometry
property.label: viscosity (mPa·s)

The following compounds have reported results that may help.
CCCCCCO
3.361
CCCCO
2.015

I. CCCO
II. CCCCCCCCCCC
III. CCCCCO
Incoming: In this exercise, place the 3 compounds in ascending sequence of their recorded viscosity. Would you mind listing the labels in the order asked for?
Outgoing: II, I, III
(II: 0.91 mPa·s, I: 1.536 mPa·s, III: 2.642 mPa·s)

---

test.parameters: 313.15 K; 100 kPa; Liquid; Falling or rolling sphere viscometry
property.label: viscosity (mPa·s)

Some compounds with recorded viscosity:
CCCCCO
2.32
CCCO
1.372

a. CCCCO
b. CCCCCCCCCCC
c. CCCCCCO
Incoming: Thanks in advance: please rank these 3 entries by viscosity, highest to lowest. // ordering of labels required in reply
Outgoing: c, a, b
(c: 2.912 mPa·s, a: 1.786 mPa·s, b: 0.847 mPa·s)

---

test.parameters: 323.15 K; 100 kPa; Liquid; Vibrating tube method
property.label: mass density (kg/m3)

CCCCCCCCCCC
718.11
CCCCCCO
797.12
CCCO
779.11
CCCCCO
792.36
CCCCO
786.3

---

test.parameters: 288.15 K; 100 kPa; Liquid; Vibrating tube method
property.label: mass density (kg/m3)

CCCCO [butan-1-ol]
813.32
CCCO [propan-1-ol]
807.54
CCCCCCO [hexan-1-ol]
822.42
CCCCCO [pentan-1-ol]
818.3
CCCCCCCCCCC [undecane]
744.06

---

test.parameters: 283.15 K; 100 kPa; Liquid; Vibrating tube method
property.label: mass density (kg/m3)

CCCCCCCCCCC [undecane]
747.78
CCCO [propan-1-ol]
811.48
CCCCCO [pentan-1-ol]
821.9
CCCCCCO [hexan-1-ol]
825.94
CCCCO [butan-1-ol]
817.07

---

test.parameters: 363.15 K; 100 kPa; Liquid; Vibrating tube method
property.label: mass density (kg/m3)

CCCCCO [pentan-1-ol]
759.77
CCCCO [butan-1-ol]
752.08
CCCO [propan-1-ol]
742.77
CCCCCCCCCCC [undecane]
688.18
CCCCCCO [hexan-1-ol]
765.64
